# Test system: HL-60(TB) leukemia
# TEST_METHOD_NOTES: NCI tumour cell line growth inhibition, 48 h
Classification field: enter Satisfied for TGI values not below 40 µM, Not satisfied for values below it.

[[record]]
compound = "CC(C)(C)C(=O)OC(N)/C=C/c1ccccc1 (stereo not given)"
tested_system = "HL-60(TB) leukemia"
label_value = "Satisfied"

[[record]]
compound = "Cc1cc(C)nc(NS(=O)(=O)c2ccc(NNC(=O)c3cccc4c(=O)c5ccccc5[nH]c34)cc2)n1"
tested_system = "HL-60(TB) leukemia"
label_value = "Satisfied"

[[record]]
compound = "CC(C)C[C@H]1[C@@H](OCc2ccccc2)COS(=O)N1[C@H](C)c1ccccc1 (stereo not given in full)"
tested_system = "HL-60(TB) leukemia"
label_value = "Satisfied"

[[record]]
compound = "O=C(CC(=O)c1ccccc1)CC(O)(c1ccccc1)c1ccccc1"
tested_system = "HL-60(TB) leukemia"
label_value = "Not satisfied"

[[record]]
compound = "CCCCCCNC(=O)c1nc(-c2ccccc2)oc1Cc1ccc(OP(=O)(O)O)cc1"
tested_system = "HL-60(TB) leukemia"
label_value = "Satisfied"

[[record]]
compound = "O=C(CSc1nnc(-c2ccc(N=Cc3ccc(Cl)cc3)cc2)o1)Nc1ccc(Cl)cc1"
tested_system = "HL-60(TB) leukemia"
label_value = "Satisfied"

[[record]]
compound = "CC[C@@]12N=C(N(C)C)C[C@]1(O)ON=C2C"
tested_system = "HL-60(TB) leukemia"
label_value = "Satisfied"

[[record]]
compound = "O=c1cc2oc3cc(O)c(O)cc3c(-c3ccccc3O)c-2cc1O"
tested_system = "HL-60(TB) leukemia"
label_value = "Satisfied"

[[record]]
compound = "COc1ccc(CCN=C2OCc3ccccc32)cc1OC"
tested_system = "HL-60(TB) leukemia"
label_value = "Not satisfied"


----------
# System: OVCAR-8 ovarian
# TEST_METHOD_NOTES: NCI tumour cell line growth inhibition, 48 h
MEASURE_NAME: TGI

[[record]]
compound = "Nc1nccc2c1ccn2-c1ccc(NC(=O)c2ccc(N3CCOCC3)c(C(F)(F)F)c2)cc1"
tested_system = "OVCAR-8 ovarian"
endpoint_value = "19.6 µM"

[[record]]
compound = "Oc1ccc(-c2nc(-c3ccc(F)cc3)c(-c3ccc4ccccc4n3)[nH]2)cc1"
tested_system = "OVCAR-8 ovarian"
endpoint_value = "32 µM"

[[record]]
compound = "Cc1ccc(NC(=O)C2C(=O)N(c3ccc(C)c(C)c3)C(=O)C2N=N)cc1C (centres undefined)"
tested_system = "OVCAR-8 ovarian"
endpoint_value = "> 100 µM"

[[record]]
compound = "COc1ccc(CN(Cc2ccc(OC)cc2)C(=O)CC2(O)C=CCC2)cc1 (centres undefined)"
tested_system = "OVCAR-8 ovarian"
endpoint_value = "> 100 µM"


----------
# System: SK-MEL-28 melanoma
# TEST_METHOD_NOTES: NCI tumour cell line growth inhibition, 48 h
Catalogue of TGI values
MEASURE_NAME: TGI

[[record]]
compound = "Cc1cc(OCc2nnc3n2N=C(c2cc(F)c(Cl)cc2Cl)/C(=C/c2ccc(Cl)cc2)S3)ccc1Cl"
endpoint_value = "54.9 µM"

[[record]]
compound = "Cc1ccc(-c2c3c(n(C4OC(CO)C(O)C(O)C4O)c(=S)c2C#N)CC(C)(C)CC3=O)cc1 (centres undefined)"
endpoint_value = "> 100 µM"

[[record]]
compound = "CN1CCN(CN2C(=O)C3C4C=CC(C3C2=O)C2C(=O)N(CN3CCN(C)CC3)C(=O)C42)CC1 (centres undefined)"
endpoint_value = "> 58 µM"

[[record]]
compound = "CCOc1ccc2c(c1)[n+]([O-])c(-c1ccccc1Cl)c(N)[n+]2[O-]"
endpoint_value = "> 100 µM"

[[record]]
compound = "Cn1cc(C2=C(c3cn(C)c4cc(C(N)=O)ccc34)C(=O)NC2=O)c2ccccc21"
endpoint_value = "> 25 µM"

[[record]]
compound = "CC(=O)Nc1ccc(-c2nc3cc(Cl)ccc3o2)cc1"
endpoint_value = "> 50 µM"

[[record]]
compound = "Cc1ccc(NC(=O)C2C(=O)N(c3ccc(C)c(C)c3)C(=O)C2N=N)cc1C (centres undefined)"
endpoint_value = "> 100 µM"

[[record]]
compound = "CCOC(=O)c1ccc(C(=O)/C(C#N)=C2\\CCCN2C)[nH]1"
endpoint_value = "> 100 µM"

[[record]]
compound = "COc1ccc(C(=O)/C=C/c2ccncc2)cc1OC"
endpoint_value = "31.7 µM"

[[record]]
compound = "CC(C)(C)[Si](C)(C)OC1/C(=C/C#N)C(n2ccc(=O)[nH]c2=O)OC1CO (centres undefined)"
endpoint_value = "> 100 µM"

[[record]]
compound = "C[C@H]1NC(=O)C2CCCCN2C(=O)CN(C)C(=O)CNC(=O)C2CCCCN2C(=O)[C@@H](NC(=O)c2nc3ccccc3cc2O)[C@@H](C)NC(=O)C2CCCCN2C(=O)CN(C)C(=O)CNC(=O)[C@@H]2CCCCN2C(=O)C1NC(=O)c1nc2ccccc2cc1O (some centres undefined)"
endpoint_value = "0.465 µM"

[[record]]
compound = "COC1C(O)=C2C(=O)O/C(C)=C/C=C/C=C/C=C\\CC(c3ccccc3)NC(=O)\\C=C/C=C\\C=C\\C=C\\[C@@]2(C)[C@@H]1O (some centres undefined)"
endpoint_value = "0.0518 µM"

[[record]]
compound = "CCN(CC)CCOc1ccc(/C=C2\\CC3C4CC=C5C[C@@H](O)CC[C@]5(C)C4CC[C@]3(C)C2=O)cc1OC (some centres undefined)"
endpoint_value = "73.4 µM"

[[record]]
compound = "Nc1nccc2c1ccn2-c1ccc(NC(=O)c2ccc(N3CCOCC3)c(C(F)(F)F)c2)cc1"
endpoint_value = "14.1 µM"

[[record]]
compound = "COc1ccc(C(O)c2nccn2C)c(OC)c1 (centres undefined)"
endpoint_value = "> 100 µM"

[[record]]
compound = "O=S(Cc1ccccn1)c1nc2ccccc2nc1-c1ccccc1 (centres undefined)"
endpoint_value = "> 100 µM"

[[record]]
compound = "Cn1c(N)c2c3c(sc2nc1=O)CCCC3"
endpoint_value = "> 75 µM"

[[record]]
compound = "CCOC(=O)c1ccc(NC(=O)O/N=C(/Cl)CCl)cc1"
endpoint_value = "> 100 µM"

[[record]]
compound = "O=c1cc(-c2ccccc2)[nH]c2c(S)cccc12"
endpoint_value = "> 100 µM"


----------
# System: OVCAR-4 ovarian
# TEST_METHOD_NOTES: NCI tumour cell line growth inhibition, 48 h
Catalogue of TGI values
MEASURE_NAME: TGI

[[record]]
molecule = "COc1cc(C2SCC(=O)N2c2ccc(Cl)c(Cl)c2)cc(OC)c1OC (stereo not given)"
measure_name = "TGI"
endpoint_value = "> 100 µM"

[[record]]
molecule = "CC(=O)Nc1ccc2cc(C)c(=O)[nH]c2n1"
measure_name = "TGI"
endpoint_value = "> 100 µM"

[[record]]
molecule = "CC12CCC3C(CCC4=CC(O)CCC43C=O)C1(O)CCC2c1ccc(=O)oc1 (stereo not given)"
measure_name = "TGI"
endpoint_value = "0.0253 µM"

[[record]]
molecule = "O=C(NCCCN(CCCCN(CCCNC(=O)C(F)(F)F)CCCc1ccccc1)CCCc1ccccc1)C(F)(F)F"
measure_name = "TGI"
endpoint_value = "17.6 µM"

[[record]]
molecule = "Ic1ccc(-n2nnnc2-c2cnoc2-c2ccccc2)cc1"
measure_name = "TGI"
endpoint_value = "> 100 µM"

[[record]]
molecule = "COC(=O)[C@]1(C)CCCC2(C)C1CC[C@H]1C=C(C)[C@H]3CCC12C3 (stereo not given in full)"
measure_name = "TGI"
endpoint_value = "> 100 µM"

[[record]]
molecule = "CC(C)=C1C(=O)C[C@]2(C)C[C@H]3/C(=C(/C)CCC12)CC[C@@]3(C)O (stereo not given in full)"
measure_name = "TGI"
endpoint_value = "> 50 µM"

[[record]]
molecule = "Cc1c(O)c(C)c2c(C)cn(C(=O)C(C)(C)C)c2c1C"
measure_name = "TGI"
endpoint_value = "27 µM"

[[record]]
molecule = "CCC1C2C=CC(CC2)N1S(=O)(=O)c1ccc(C)cc1 (stereo not given)"
measure_name = "TGI"
endpoint_value = "> 100 µM"

[[record]]
molecule = "CCCCCC(/C=C/C1CCC(=O)C1CC#C[Si](C)(C)C)OCc1ccccc1 (stereo not given)"
measure_name = "TGI"
endpoint_value = "> 71.8 µM"


----------
# Tested on: HOP-92 NSCLC
# TEST_METHOD_NOTES: NCI tumour cell line growth inhibition, 48 h
MEASURE_NAME: TGI

[[record]]
compound = "O=C1NC(=S)NNC12c1ccccc1-c1ccccc12"
measure_name = "TGI"
endpoint_value = "> 10 µM"

[[record]]
compound = "Cc1ccc(-c2cc(-c3ccc(Cl)cc3)nc(/N=C3\\C(=O)N(CN4CCOCC4)c4ccc(Cl)cc43)n2)cc1"
measure_name = "TGI"
endpoint_value = "62.2 µM"

[[record]]
compound = "COC12C=C/C(=C(/C(=O)OCc3ccncc3)C(=O)CCCCCCCCC3(OC)C=C/C(=C(/C(=O)OCc4ccncc4)C(=O)CCCCCCCC1)O3)O2"
measure_name = "TGI"
endpoint_value = "2.36 µM"

[[record]]
compound = "O=c1[nH]c(=O)n(C2CC(O)C(CO)O2)cc1CO (configuration not stated)"
measure_name = "TGI"
endpoint_value = "> 100 µM"

[[record]]
compound = "O=C(O)c1cccnc1"
measure_name = "TGI"
endpoint_value = "> 100 µM"

[[record]]
compound = "Cc1ccc(-c2nc3ccc([N+](=O)[O-])cc3[nH]2)cc1"
measure_name = "TGI"
endpoint_value = "> 100 µM"

[[record]]
compound = "COc1cc(/C=C/C(=O)O)ccc1C(=O)OCc1ccccc1"
measure_name = "TGI"
endpoint_value = "> 100 µM"


Hello, the source for this data is PubChem BioAssay (NCI), in case you need it.
